METHOD_NOTES: Toxicity test (maximum tolerated dose)
RECORDED_CONDITIONS: mouse, in vivo; single application; BALB/C mice, ten a group; largest amount where no death is seen
Counter-ions that a name gives are not always drawn.
Please provide measured MTD for the entries that follow.
Answers are plain numbers, in mg/kg.

Look over these answered cases.
CC(=O)O[C@H]1C[C@H](O[C@H]2C[C@](N)(C(C)=O)Cc3c(O)c4c(c(O)c32)C(=O)c2ccccc2C4=O)OC[C@H]1OC(C)=O [11 (hydrochloride)]
40
CC(=O)[C@]1(N)Cc2c(O)c3c(c(O)c2[C@@H](O[C@H]2C[C@H](O)[C@H](O)CO2)C1)C(=O)c1ccccc1C3=O [12 (hydrochloride)]
32

IN: Provide only the value of recorded MTD for COc1cccc2c1C(=O)c1c(O)c3c(c(O)c1C2=O)C[C@@](O)(C(=O)CO)C[C@@H]3O[C@H]1C[C@H](N)[C@H](O)[C@H](C)O1 [ADR, Adriamycin, reference compound]
OUT: 12.5
